experiment: Inhibition of alpha-glucosidase (unknown origin) using sucrose as substrate assessed as formation of glucose after 30 mins by glucose oxidase method; set-up: species or system Homo sapiens
attribute.measured: IC50 (µM)

INSERT INTO measurements (molecule, attribute_measured, readout_relation, result_number) VALUES
  ('C[C@H](CC[C@H](O)[C@](C)(O)CO)[C@H]1CC[C@@]2(C)C3=CC[C@H]4C(C)(C)C(=O)CC[C@]4(C)C3=CC[C@]12C [GANODERMANONTRIOL]', 'IC50', '=', 540),
  ('CC(=O)O[C@@H]1C(=O)C2=C(C(=O)C[C@H]3C(C)(C)[C@@H](O)CC[C@]23C)[C@]2(C)C(=O)C[C@H]([C@H](C)CC(=O)CC(C)C(=O)O)[C@@]12C (stereo not given in full) [GANODERIC ACID H]', 'IC50', '>', 600),
  ('CC(CC(=O)C[C@@H](C)[C@H]1C[C@H](O)[C@@]2(C)C3=C(C(=O)C[C@]12C)[C@@]1(C)CC[C@H](O)C(C)(C)[C@@H]1CC3)C(=O)O (stereo not given in full) [GANOLUCIDIC ACID B]', 'IC50', '>', 600),
  ('COC(=O)C(C)CC(=O)C[C@@H](C)[C@H]1C[C@H](O)[C@@]2(C)C3=C(C(=O)C[C@]12C)[C@@]1(C)CCC(=O)C(C)(C)[C@@H]1C[C@@H]3O (stereo not given in full) [METHYL GANODERATE A]', 'IC50', '>', 600),
  ('C[C@H](CC(=O)C[C@@H](C)[C@H]1C[C@H](O)[C@@]2(C)C3=C(C(=O)C[C@]12C)[C@@]1(C)CCC(=O)C(C)(C)[C@@H]1C[C@@H]3O)C(=O)O [GANODERIC ACID A]', 'IC50', '=', 528);

---

assay: Inhibition of alpha-glucosidase (unknown origin) using sucrose as substrate assessed as formation of glucose after 30 mins by glucose oxidase method; parameters: species or system Homo sapiens
pIC50: −log10 of the molar value.
Quick reference: pIC50 of the listed items.
attribute.measured: pIC50

INSERT INTO results (molecule, attribute_measured, readout_relation, result_number) VALUES
  ('C[C@H](CC(=O)C[C@@H](C)[C@H]1CC(=O)[C@@]2(C)C3=C(C(=O)C[C@]12C)[C@@]1(C)CCC(=O)C(C)(C)[C@@H]1C[C@@H]3O)C(=O)O', 'pIC50', '<', 3.22),
  ('CC(CC(=O)C[C@@H](C)[C@H]1CC(=O)[C@@]2(C)C3=C(C(=O)C[C@]12C)[C@@]1(C)CC[C@H](O)C(C)(C)[C@@H]1C[C@@H]3O)C(=O)O (stereo not given in full)', 'pIC50', '=', 3.33),
  ('C[C@H](CCC=C(CO)CO)[C@H]1CC[C@@]2(C)C3=CC[C@H]4C(C)(C)C(=O)CC[C@]4(C)C3=CC[C@]12C', 'pIC50', '=', 3.68),
  ('COC(=O)C(C)CC(=O)/C=C(\C)[C@H]1C[C@H](O)[C@@]2(C)C3=C(C(=O)C[C@]12C)[C@@]1(C)CCC(=O)C(C)(C)[C@@H]1C[C@@H]3O (stereo not given in full) [METHYL GANODERENATE A]', 'pIC50', '<', 3.22),
  ('C/C(=C\CC[C@@H](C)[C@H]1CC[C@@]2(C)C3=CC[C@H]4C(C)(C)[C@@H](O)CC[C@]4(C)C3=CC[C@]12C)CO', 'pIC50', '=', 3.96);
